Molecular target: Lysosomal alpha-glucosidase (Homo sapiens)
Experiment: qHTS Assay for Activators of Human alpha-Glucosidase as a Potential Chaperone Treatment of Pompe Disease; note: potency is the fitted concentration of half-maximal effect; nearly all actives have a fitted effect of over 80% in size
Conditions: purified enzyme, 4-MU-alpha-glucoside fluorescence, 20 min; series mostly up to 76.9 µM
Screen size: about 200,000 compounds; about 720 (0.36%) were called active. About 8% were inconclusive and are not listed. The list shows a part of the results.
measuredProperty: Potency

Guide cases for Potency, answers given:
compound	measuredProperty	result
CCCN(CCC)CCCNC(=O)c1cc2cc3ccc(OC)cc3nc2o1	Potency	28.2 µM (active)
CCc1cc(=O)n2c([nH]c3ccccc32)c1C#N	Potency	28.2 µM (active)
N#Cc1ccc2c(c1)nc1ccccn12	Potency	35.5 µM (active)
Cc1ccc(S(=O)(=O)NC(C(=O)Oc2cc3oc(=O)cc(C)c3cc2Cl)C(C)C)cc1 (stereo not drawn)	Potency	31.6 µM (active)

So, NS(=O)(=O)c1ccc(N2N=C(c3ccccc3)CC2c2ccc(F)cc2)cc1 (stereo not drawn) ? Its Potency was 31.6 µM (active)

So, Cc1ccc(S(=O)(=O)NC(C(=O)Oc2ccc3ccc(=O)oc3c2)c2ccccc2)cc1 (stereo not drawn) ? Its Potency was 35.5 µM (active)

So, CCc1cc2c(=O)c(Oc3ccccc3F)c(C)oc2c(CN(C)C)c1O ? Its Potency was 35.5 µM (active)

So, O=C(COC(=O)c1ccccc1Nc1ccccc1)NCc1ccccc1Cl ? Its Potency was 28.2 µM (active)

So, CC(C)c1cc(NCCCN2CCOCC2)n2c(nc3ccccc32)c1C#N ? Its Potency was 31.6 µM (active)
